Target: recombinant BACE1 protein (Homo sapiens, UniProt P56817)
Construct: recombinant BACE1 protein in a final concentration of 1 μg/ml
Sequence (P56817 46-501): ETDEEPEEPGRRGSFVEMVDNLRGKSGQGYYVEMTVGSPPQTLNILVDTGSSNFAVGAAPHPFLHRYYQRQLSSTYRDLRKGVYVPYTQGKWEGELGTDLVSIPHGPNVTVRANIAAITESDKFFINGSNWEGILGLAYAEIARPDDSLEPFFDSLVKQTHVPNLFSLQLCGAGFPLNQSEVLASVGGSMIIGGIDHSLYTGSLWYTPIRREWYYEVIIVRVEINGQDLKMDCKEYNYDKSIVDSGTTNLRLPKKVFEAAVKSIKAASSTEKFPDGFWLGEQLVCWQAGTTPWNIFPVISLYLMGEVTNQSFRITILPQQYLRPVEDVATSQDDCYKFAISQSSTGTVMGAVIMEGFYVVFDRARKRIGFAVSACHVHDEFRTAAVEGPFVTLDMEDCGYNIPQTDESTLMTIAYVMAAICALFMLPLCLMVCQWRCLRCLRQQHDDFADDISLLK
Experiment: Biochemical FRET based assay
Settings: recombinant BACE1 1 μg/ml, APP-derived Swedish-mutation peptide substrate, 120 minutes, room temperature, pH 5.0; read-out: Biochemical FRET based assay pIC50 (converted)
OBSERVED_PROPERTY: IC50 (µM)
Answers are plain numbers, in µM.

Use these answered entries as a reference point.
[[record]]
compound = "COc1cncc(-c2cccc(C3(C)CN(C)C(=O)C(N)=N3)c2)c1 (stereo not shown) [compound 2]"
unit_of_measurement = "µM"
experimental_value = 15.5

[[record]]
compound = "CN1CC(C)(c2cccc(NC(=O)c3ccc(Cl)cn3)c2)N=C(N)C1=O (stereo not shown) [compound 3]"
unit_of_measurement = "µM"
experimental_value = 0.457

[[record]]
compound = "COc1cncc(-c2cc(C3(C)CN(C)C(=O)C(N)=N3)c(F)cc2F)c1 (stereo not shown) [compound 7]"
unit_of_measurement = "µM"
experimental_value = 7.59


With those in mind, consider the next compound.
Query: Return IC50 (reported value) for this compound: CN1CC(C)(c2cccc(-c3cccc(C#N)c3)c2)N=C(N)C1=O (stereo not shown) [compound 1]
Response: 27.5

###

Would you mind telling me the reported IC50 of each entry?
Test system: Aβtotal produced and secreted into the medium of human neuroblastoma SKNBE2 cells
Experiment: Cellular αlisa assay in SKNBE2 cells, Aβtotal
Assay type: cell-based
Conditions: SKNBE2 expressing wild type hAPP695, incubated for 18 hours, read-out: Cellular αlisa assay in SKNBE2 cells Aβtotal pIC50 (converted)
Method: In two αlisa assays the levels of Aβtotal and Aβ42 produced and secreted into the medium of human neuroblastoma SKNBE2 cells are quantified. […] Aβtotal and Aβ42 are measured by sandwich αlisa. αlisa is a sandwich assay using biotinylated antibody AbN/25 attached to streptavidin coated beads and antibody Ab4G8 or cAb42/26 conjugated acceptor beads for the detection of Aβtotal and Aβ42 respectively. […] Light emission is measured after 1 hour incubation (excitation at […] and emission at 615 nm). […]
One number for each entry, in µM.

[[record]]
molecule = "CN1CC(C)(c2cccc(-c3cccc(C#N)c3)c2)N=C(N)C1=O (stereo not shown)"
observed_property = "IC50"
unit_of_measurement = "µM"
experimental_value = 5.75

[[record]]
molecule = "CN1CC(C)(c2cccc(NC(=O)c3ccc(Cl)cn3)c2)N=C(N)C1=O (stereo not shown)"
observed_property = "IC50"
unit_of_measurement = "µM"
experimental_value = 0.107

[[record]]
molecule = "COc1cncc(-c2cc(C3(C)CN(C)C(=O)C(N)=N3)c(F)cc2F)c1 (stereo not shown)"
observed_property = "IC50"
unit_of_measurement = "µM"
experimental_value = 4.07


Query: Dear colleague, please send me the reported IC50 for COc1cncc(-c2cccc(C3(C)CN(C)C(=O)C(N)=N3)c2)c1 (stereo not shown) when you can.
Response: 5.75

###

// returns Condition not met unless melting point is strictly below 200 °C, in which case Condition met

[[record]]
molecule = "CN1CC(C)(c2cccc(-c3cncnc3)c2)N=C(N)C1=O (stereo not drawn) [compound 16]"
category_label = "Condition not met"

[[record]]
molecule = "COc1cncc(-c2cccc(C3(C)CN(C)C(=O)C(N)=N3)c2)c1 (stereo not drawn) [compound 2]"
category_label = "Condition not met"

[[record]]
molecule = "CN1CC(C)(c2cc(-c3cncnc3)c(F)cc2F)N=C(N)C1=O (stereo not drawn) [compound 10]"
category_label = "Condition met"


Query: Is it true that melting point reported for COc1cncc(-c2cc(C3(C)CN(C)C(=O)C(N)=N3)c(F)cc2F)c1 (stereo not drawn) [compound 7] is less than 200 °C?
Response: Condition met

Query: Does the reported melting point of CN1CC(C)(c2cc(-c3ccccc3)c(F)cc2F)N=C(N)C1=O (stereo not drawn) [compound 6] stay below 200 °C?
Response: Condition met

Query: Criterion: melting point strictly below 200 °C. Is it met by CN1CC(C)(c2cccc(-c3cccc(C#N)c3)c2)N=C(N)C1=O (stereo not drawn) [compound 1] ?
Response: Condition not met
